measuredOn: BB2 receptor (Homo sapiens, UniProt P30550)
Construct: endogenous in cells
Sequence (P30550 whole entry): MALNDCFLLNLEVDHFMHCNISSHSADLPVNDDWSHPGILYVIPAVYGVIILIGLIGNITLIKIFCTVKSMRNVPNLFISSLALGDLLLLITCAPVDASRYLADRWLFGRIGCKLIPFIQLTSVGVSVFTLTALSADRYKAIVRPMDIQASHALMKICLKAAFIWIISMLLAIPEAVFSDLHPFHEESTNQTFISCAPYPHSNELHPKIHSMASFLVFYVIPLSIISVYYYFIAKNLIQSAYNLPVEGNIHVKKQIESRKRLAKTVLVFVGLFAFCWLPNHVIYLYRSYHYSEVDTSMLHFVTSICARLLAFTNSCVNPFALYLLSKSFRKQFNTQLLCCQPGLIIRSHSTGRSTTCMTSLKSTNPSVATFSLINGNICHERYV
assayProtocol: BB2 receptor binding test (125I [Tyr4] bombesin, PC-3 cell membrane sample)
testConditions: membrane sample of human prostate cancer-derived PC-3 cell; 125I [Tyr4] bombesin 0.075 nM; room temperature, 2 hours; read-out: 50% binding inhibition concentration
Experimental: A BB2 receptor binding test was carried out using a membrane sample prepared from a human prostate cancer-derived PC-3 cell. […] The BB2 receptor binding test was carried out by the following method, and the receptor antagonistic activity of a compound to be tested was calculated. […] Non-specific binding was measured using 1 μM of bombesin. […] The radioactivity on the filter was measured using a microplate scintillation counter (Top Count, Perkin-Elmer).
measuredMetric: IC50 (nM)

compound: COc1ccc(N(CC(=O)Nc2ccc(Cl)cc2C)S(=O)(=O)c2ccccc2)cc1OC
IC50 / nM: 398
--
compound: COc1cc(OC)cc(C(=O)Nc2sc3c(c2-c2nc4ccccc4s2)CCN(C(C)C)C3)c1.Cl [compound 5, hydrochloride]
IC50 / nM: 383

[1] CC(C)CC(CN[C@@H](CC(C)C)C(N)=O)NC(=O)[C@H](Cc1cnc[nH]1)NC(=O)CNC(=O)[C@@H](NC(=O)C(C)NC(=O)[C@H](Cc1c[nH]c2ccccc12)NC(=O)[C@H](CCC(N)=O)NC(=O)[C@H]1Cc2c([nH]c3ccccc23)CN1)C(C)C (stereo partly drawn)
[2] O=C(Nc1ccc(S(=O)(=O)N2CCCCC2c2cccnc2)cc1)c1cc([N+](=O)[O-])ccc1Cl (stereo not drawn)
[3] c1ccc(-c2sc(-c3ccccn3)nc2-c2cccc3ccccc23)cc1
[4] O=C(/C=C/c1ccc(-c2ccc([N+](=O)[O-])cc2)o1)c1ccccc1
Order each entry by recorded IC50, climbing from the minimum. Use the labels to give the requested order. 1, 2, 3, 4
(1: 20 nM, 2: 342 nM, 3: 504 nM, 4: 1330 nM)
